# viability, T/C values compiled below
system: 454973-116-R2-J3-PDC spheroids, viability, % test/control; test: Anticancer human tumor 454973-116-R2-J3-PDC patient-derived pancreatic carcinoma cell line growth inhibition [GQUAD]; conditions: second compound 10 µM; first compound 0.1 µM; active compounds read low; spheroids with HUVEC and MSC
Lab book: enter the figure in %, no units written.

CC(=O)O[C@H]1C(=O)[C@@]2(C)[C@H]([C@H](OC(=O)c3ccccc3)[C@]3(O)C[C@H](OC(=O)[C@H](O)[C@@H](NC(=O)c4ccccc4)c4ccccc4)C(C)=C1C3(C)C)[C@]1(OC(C)=O)CO[C@@H]1C[C@@H]2O + CN(C)c1ccc(Nc2c3ccc(NC(=O)CCN4CCCC4)cc3nc3cc(NC(=O)CCN4CCCC4)ccc23)cc1 ... 12.1
O=C(NO)c1cnc(N2CCN(S(=O)(=O)c3ccc4ccccc4c3)CC2)nc1 + Cc1[nH]c2ccc(F)cc2c1-c1nc2c3cccnc3c3ncccc3c2[nH]1 ... 90.2

# input Query: viability, T/C; subject: Nc1ccn(C2OC(CO)C(O)C2(F)F)c(=O)n1 (centres undefined) + CN(C)c1ccc(Nc2c3ccc(NC(=O)CCN4CCCC4)cc3nc3cc(NC(=O)CCN4CCCC4)ccc23)cc1
# output 14.2

# input Query: viability, T/C; subject: O=c1[nH]cc(F)c(=O)[nH]1 + Cc1cnc(CNC(=O)c2c(=O)c3ccc(N4CCCN(C)CC4)nc3n3c2sc2ccccc23)cn1
# output 17.2

# input Query: viability, T/C; subject: COc1ncnc(C2CC2)c1-c1ncc2cnn(Cc3ccc(-c4nc(C(F)(F)F)cn4C(C)C)cc3)c2n1 + Cc1[nH]c2ccc(F)cc2c1-c1nc2c3cccnc3c3ncccc3c2[nH]1
# output 92.9

# input Query: viability, T/C; subject: CC1COCCN1c1cc(C2(S(C)(=N)=O)CC2)nc(-c2ccnc3[nH]ccc23)n1 (centres undefined) + Cc1[nH]c2ccc(F)cc2c1-c1nc2c3cccnc3c3ncccc3c2[nH]1
# output 84

# input Query: viability, T/C; subject: COc1cc(C2c3cc4c(cc3C(OC3OC5COC(C)OC5C(O)C3O)C3COC(=O)C23)OCO4)cc(OC)c1O (centres undefined) + CN(C)c1ccc(Nc2c3ccc(NC(=O)CCN4CCCC4)cc3nc3cc(NC(=O)CCN4CCCC4)ccc23)cc1
# output 71.3

# input Query: viability, T/C; subject: Cc1cccc(N(C)C(=O)C2C(O)CCN2c2nc(C)cc(C(F)(F)F)c2C#N)c1 (centres undefined) + Cc1cnc(CNC(=O)c2c(=O)c3ccc(N4CCCN(C)CC4)nc3n3c2sc2ccccc23)cn1
# output 16.9

# input Query: viability, T/C; subject: CCCS(=O)(=O)Nc1ccc(F)c(C(=O)c2c[nH]c3ncc(-c4ccc(Cl)cc4)cc23)c1F + Cc1cnc(CNC(=O)c2c(=O)c3ccc(N4CCCN(C)CC4)nc3n3c2sc2ccccc23)cn1
# output 18.1

----------
tested on: 454973-116-R2-J3-PDC spheroids, viability, % test/control; experiment: Anticancer human tumor 454973-116-R2-J3-PDC cell line growth inhibition [GQUAD]; details: second compound 0.0316 µM; first compound 1 µM; active compounds read low; spheroids with HUVEC and MSC;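 note: spheroids exposed to compounds for seven days; 100% = DMSO vehicle control viability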
MEASURED METRIC: viability, T/C

# input Query: viability, T/C; subject: CC(C)n1c(=O)n(C)c2cnc3cc(F)c(-c4ccc(OCCCN5CCCCC5)nc4)cc3c21 + CN(C)c1ccc(Nc2c3ccc(NC(=O)CCN4CCCC4)cc3nc3cc(NC(=O)CCN4CCCC4)ccc23)cc1
# output 99.2%

# input Query: viability, T/C; subject: COc1cc(C2c3cc4c(cc3C(OC3OC5COC(C)OC5C(O)C3O)C3COC(=O)C23)OCO4)cc(OC)c1O (stereo not given) + CN(C)c1ccc(Nc2c3ccc(NC(=O)CCN4CCCC4)cc3nc3cc(NC(=O)CCN4CCCC4)ccc23)cc1
# output 55.1%

# input Query: viability, T/C; subject: COc1ncnc(C2CC2)c1-c1ncc2cnn(Cc3ccc(-c4nc(C(F)(F)F)cn4C(C)C)cc3)c2n1 + Cc1cnc(CNC(=O)c2c(=O)c3ccc(N4CCCN(C)CC4)nc3n3c2sc2ccccc23)cn1
# output 104%

# input Query: viability, T/C; subject: CC1COCCN1c1cc(C2(O)CC3CCC(C2)O3)c2cnn(-c3ccn[nH]3)c2n1 (stereo not given) + Cc1cnc(CNC(=O)c2c(=O)c3ccc(N4CCCN(C)CC4)nc3n3c2sc2ccccc23)cn1
# output 20.4%

# input Query: viability, T/C; subject: O=C(NO)c1cnc(N2CCN(S(=O)(=O)c3ccc4ccccc4c3)CC2)nc1 + CN(C)c1ccc(Nc2c3ccc(NC(=O)CCN4CCCC4)cc3nc3cc(NC(=O)CCN4CCCC4)ccc23)cc1
# output 3.06%

# input Query: viability, T/C; subject: CC1COCCN1c1cc(C2(O)CC3CCC(C2)O3)c2cnn(-c3ccn[nH]3)c2n1 (stereo not given) + Cc1[nH]c2ccc(F)cc2c1-c1nc2c3cccnc3c3ncccc3c2[nH]1
# output 21.7%

# input Query: viability, T/C; subject: O=C(NO)c1cnc(N2CCN(S(=O)(=O)c3ccc4ccccc4c3)CC2)nc1 + Cc1cnc(CNC(=O)c2c(=O)c3ccc(N4CCCN(C)CC4)nc3n3c2sc2ccccc23)cn1
# output 1.33%

# input Query: viability, T/C; subject: C#Cc1c(F)ccc2cc(O)cc(-c3ncc4c(N5CC6CCC(C5)N6)nc(OCC56CCCN5CC(F)C6)nc4c3F)c12 (stereo not given) + CN(C)c1ccc(Nc2c3ccc(NC(=O)CCN4CCCC4)cc3nc3cc(NC(=O)CCN4CCCC4)ccc23)cc1
# output 20.2%

# input Query: viability, T/C; subject: COc1ccc([C@@H](O)c2cc(-c3ncnc4cc(N5CCOCC5)ccc34)c(F)cc2Cl)nn1 + Cc1[nH]c2ccc(F)cc2c1-c1nc2c3cccnc3c3ncccc3c2[nH]1
# output 87.6%

# input Query: viability, T/C; subject: COc1cccc2c1C(=O)c1c(O)c3c(c(O)c1C2=O)CC(O)(C(=O)CO)CC3OC1CC(N)C(O)C(C)O1 (stereo not given) + Cc1[nH]c2ccc(F)cc2c1-c1nc2c3cccnc3c3ncccc3c2[nH]1
# output 22.6%

# input Query: viability, T/C; subject: CC(=O)O[C@H]1C(=O)[C@@]2(C)[C@H]([C@H](OC(=O)c3ccccc3)[C@]3(O)C[C@H](OC(=O)[C@H](O)[C@@H](NC(=O)c4ccccc4)c4ccccc4)C(C)=C1C3(C)C)[C@]1(OC(C)=O)CO[C@@H]1C[C@@H]2O + Cc1[nH]c2ccc(F)cc2c1-c1nc2c3cccnc3c3ncccc3c2[nH]1
# output 6.32%

# input Query: viability, T/C; subject: C#Cc1c(F)ccc2cc(O)cc(-c3ncc4c(N5CC6CCC(C5)N6)nc(OCC56CCCN5CC(F)C6)nc4c3F)c12 (stereo not given) + Cc1cnc(CNC(=O)c2c(=O)c3ccc(N4CCCN(C)CC4)nc3n3c2sc2ccccc23)cn1
# output 23.2%

# input Query: viability, T/C; subject: O=c1[nH]cc(F)c(=O)[nH]1 + Cc1[nH]c2ccc(F)cc2c1-c1nc2c3cccnc3c3ncccc3c2[nH]1
# output 77.9%

# input Query: viability, T/C; subject: CCCS(=O)(=O)Nc1ccc(F)c(C(=O)c2c[nH]c3ncc(-c4ccc(Cl)cc4)cc23)c1F + Cc1cnc(CNC(=O)c2c(=O)c3ccc(N4CCCN(C)CC4)nc3n3c2sc2ccccc23)cn1
# output 106%

# input Query: viability, T/C; subject: COc1cccc2c1C(=O)c1c(O)c3c(c(O)c1C2=O)CC(O)(C(=O)CO)CC3OC1CC(N)C(O)C(C)O1 (stereo not given) + Cc1cnc(CNC(=O)c2c(=O)c3ccc(N4CCCN(C)CC4)nc3n3c2sc2ccccc23)cn1
# output 28.8%

# input Query: viability, T/C; subject: C#Cc1c(F)ccc2cc(O)cc(-c3ncc4c(N5CC6CCC(C5)N6)nc(OCC56CCCN5CC(F)C6)nc4c3F)c12 (stereo not given) + Cc1[nH]c2ccc(F)cc2c1-c1nc2c3cccnc3c3ncccc3c2[nH]1
# output 25.1%

# input Query: viability, T/C; subject: CC(C)(O)C1CCC(Nc2ccc3ncc(-c4cccc(C(F)(F)F)c4)n3n2)CC1 (stereo not given) + Cc1[nH]c2ccc(F)cc2c1-c1nc2c3cccnc3c3ncccc3c2[nH]1
# output 76.8%

# input Query: viability, T/C; subject: CC1COCCN1c1cc(-c2ccnn2C)c2ccnc(-c3ccn[nH]3)c2n1 (stereo not given) + Cc1cnc(CNC(=O)c2c(=O)c3ccc(N4CCCN(C)CC4)nc3n3c2sc2ccccc23)cn1
# output 18.5%

# input Query: viability, T/C; subject: CC(C)n1c(=O)n(C)c2cnc3cc(F)c(-c4ccc(OCCCN5CCCCC5)nc4)cc3c21 + Cc1[nH]c2ccc(F)cc2c1-c1nc2c3cccnc3c3ncccc3c2[nH]1
# output 101%

# input Query: viability, T/C; subject: O=C(c1cc(Cc2n[nH]c(=O)c3ccccc23)ccc1F)N1CCN(C(=O)C2CC2)CC1 + Cc1[nH]c2ccc(F)cc2c1-c1nc2c3cccnc3c3ncccc3c2[nH]1
# output 100%
